experiment: Pharmacokinetics following a single oral dose in rats; assay type: in vivo; conditions: rat, nominal 10 mg/kg, male Sprague-Dawley rats, plasma
Attribute: Tmax
QUANTITY_MEASURED: Tmax (min)

# SMILES_ENTRY, DATA_VALUE
data = [
    ("COCc1nn(Cc2ccc(Cn3ccccc3=O)cc2)cc1C(=O)NCc1nccc(OC)c1F", 180),
    ("COc1cccc(CNC(=O)c2cn(Cc3ccc(Cn4ccccc4=O)cc3)nc2N)c1F", 60),
    ("COCc1nn(Cc2ccc(Cn3ccccc3=O)cc2)cc1C(=O)NCc1cccc(OC)c1F", 15),
    ("COCc1nn(Cc2ccc(Cn3ccccc3=O)cc2)cc1C(=O)NCc1c(F)ccc(OC)c1F", 60),
    ("O=C(NCc1c(F)cccc1C(F)(F)F)c1cn(Cc2ccc(Cn3ccccc3=O)cc2)nc1C(F)(F)F", 15),
    ("COCc1nn(Cc2ccc(Cn3ccccc3=O)cc2)cc1C(=O)NCc1c(C#N)ccc(OC)c1F", 30),
]

----------
Attribute: IC50
biological target: Human plasma kallikrein (Homo sapiens (Human)); test: Determination of the IC50 for plasma kallikrein; details: 25° C., fluorogenic substrate H-DPro-Phe-Arg-AFC; read-out: IC50 (human PKaI)
QUANTITY_MEASURED: IC50 (µM)

# COMPOUND, QUANTITY_MEASURED, DATA_VALUE
records = [
    ("COc1cccc(CNC(=O)c2cn(Cc3ccc(N4CCCC4)nc3)nc2C(F)(F)F)c1F [Example 126]", "IC50", 0.742),
    ("COc1ccc(F)c(CNC(=O)c2cn(Cc3ccc(Cn4cc(C)cn4)cc3)nc2C(F)(F)F)c1 [Example 9]", "IC50", 0.239),
    ("COCc1nn(Cc2ccc(Cn3ccccc3=O)cc2)cc1C(=O)NCc1cccc(OC)c1 [Example 133]", "IC50", 0.0902),
    ("COCc1nn(Cc2ccc(Cn3ccccc3=O)cc2)cc1C(=O)NCc1cc(OC)ccc1F [Example 64]", "IC50", 0.0352),
]

----------
target: UniProt:P06870; experiment: Determination of the IC50 for KLK1; assay type: biochemical; details: 25° C., fluorogenic substrate H-DVal-Leu-Arg-AFC
pIC50: −log10 of the molar value.

# MOLECULE, pIC50
records = [
    ("Nc1nn(Cc2ccc(Cn3ccccc3=O)cc2)cc1C(=O)NCc1ccc(OC(F)(F)F)cc1 [Example 58]", "< 5.00"),
    ("COc1cccc(CNC(=O)c2cn(Cc3ccc(Cn4ccccc4=O)cc3)nc2C2CC2)c1F [Example 52]", "< 4.40"),
    ("COCc1nn(Cc2ccc(Cn3ccccc3=O)cc2)cc1C(=O)NCc1cnccc1C(F)(F)F [Example 31]", "< 5.00"),
    ("COCc1nn(Cc2ccc(Cn3ccccc3=O)cc2)cc1C(=O)NCc1ccc(C)nc1 [Example 32]", "< 5.00"),
    ("Cc1cnn(Cc2ccc(Cn3cc(C(=O)NCc4cccc(OC(F)(F)F)c4)c(C(F)(F)F)n3)cc2)c1 [Example 7]", "< 5.00"),
    ("COCc1nn(Cc2ccc(Cn3ccccc3=O)cc2)cc1C(=O)NCc1nccc(OC)c1F [Example 41]", "< 4.40"),
]

----------
Attribute: log10(IC50)
molecular target: Human plasma kallikrein (Homo sapiens (Human), UniProt P03952); experiment: Determination of the IC50 for plasma kallikrein; settings: 25° C., fluorogenic substrate H-DPro-Phe-Arg-AFC; read-out: IC50 (human PKaI)
Sequence (P03952 391-638): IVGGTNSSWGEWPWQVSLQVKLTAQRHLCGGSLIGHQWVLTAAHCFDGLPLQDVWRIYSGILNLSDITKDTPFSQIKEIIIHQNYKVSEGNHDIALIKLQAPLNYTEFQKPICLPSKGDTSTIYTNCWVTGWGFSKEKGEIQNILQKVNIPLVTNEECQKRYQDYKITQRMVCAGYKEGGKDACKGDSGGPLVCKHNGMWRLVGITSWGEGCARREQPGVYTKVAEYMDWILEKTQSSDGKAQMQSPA
Sequence (P03952 20-390 partner): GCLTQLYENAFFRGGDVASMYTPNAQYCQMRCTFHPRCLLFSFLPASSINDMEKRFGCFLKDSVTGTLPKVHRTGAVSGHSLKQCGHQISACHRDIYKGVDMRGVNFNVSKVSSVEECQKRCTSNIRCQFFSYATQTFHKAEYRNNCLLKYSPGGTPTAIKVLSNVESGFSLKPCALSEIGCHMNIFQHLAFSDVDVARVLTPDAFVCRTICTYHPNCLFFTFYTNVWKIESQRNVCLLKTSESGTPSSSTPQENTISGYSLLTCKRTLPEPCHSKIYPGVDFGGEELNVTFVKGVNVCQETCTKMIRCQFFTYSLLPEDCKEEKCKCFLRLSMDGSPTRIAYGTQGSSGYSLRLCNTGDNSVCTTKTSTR
QUANTITY_MEASURED: log10(IC50) (log10 of the value in nM)

# SMILES_ENTRY, log10(IC50)
data = [
    ("COc1cccc(CNC(=O)c2cn(Cc3ccc(Cn4ccccc4=O)cc3)nc2C2CC2)c1F", 1.37),
    ("COCc1nn(Cc2ccc(Cn3ccccc3=O)cc2)cc1C(=O)NCc1c(C#N)ccc(OC)c1F", -0.22),
    ("COCc1nn(Cc2ccc(Cn3ccccc3=O)cc2)cc1C(=O)NCc1cccc(OC)c1C(F)F", 1.23),
    ("COCc1nn(Cc2ccc(Cn3ccccc3=O)cc2)cc1C(=O)NCc1cc(F)cc(OC)c1F", 1.88),
    ("COCc1nn(Cc2ccc(Cn3ccccc3=O)cc2)cc1C(=O)NCc1c(F)ccc(Cl)c1F", 2.08),
    ("COCc1nn(Cc2ccc(Cn3ccccc3=O)cc2)cc1C(=O)NCc1c(OC)ccc(OC)c1F", 0.32),
    ("Cc1ccc(CNC(=O)c2cn(Cc3ccc(Cn4cc(C)cn4)cc3)nc2C(F)(F)F)c(C)c1", 2.86),
    ("COCc1nn(Cc2ccc(Cn3ccccc3=O)cc2)cc1C(=O)NCc1cc(Cl)ccc1C#N", 1.45),
]

----------
Entries with reported IC50 on Human KLK1 (Homo sapiens (Human), UniProt P06870)
Sequence (P06870 25-262): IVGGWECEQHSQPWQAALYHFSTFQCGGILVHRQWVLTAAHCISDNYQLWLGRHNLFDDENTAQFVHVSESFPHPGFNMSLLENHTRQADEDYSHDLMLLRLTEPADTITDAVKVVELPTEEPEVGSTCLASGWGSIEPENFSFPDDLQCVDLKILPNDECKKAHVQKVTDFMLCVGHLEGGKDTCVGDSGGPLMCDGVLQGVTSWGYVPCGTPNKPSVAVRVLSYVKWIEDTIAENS

# COMPOUND, IC50
measured = [
    ("COCc1nn(Cc2ccc(Cn3ccccc3=O)cc2)cc1C(=O)NCc1nc(OC)ccc1F", "> 10 µM"),
    ("Cc1cnn(Cc2ccc(Cn3cc(C(=O)NCc4c(F)cccc4Cl)c(C(F)(F)F)n3)cc2)c1", "> 10 µM"),
    ("Cc1ccc(CNC(=O)c2cn(Cc3ccc(Cn4cc(C)cn4)cc3)nc2C(F)(F)F)c(F)c1", "> 10 µM"),
    ("Nc1nn(Cc2ccc(Cn3ccccc3=O)cc2)cc1C(=O)NCC1CNc2ccc(Cl)cc2O1 (centres unmarked)", "> 40 µM"),
    ("Cc1cnn(Cc2ccc(Cn3cc(C(=O)NCc4cc(Cl)ccc4C(F)(F)F)c(C(F)(F)F)n3)cc2)c1", "> 10 µM"),
    ("Cc1cc(C)c(CNC(=O)c2cn(Cc3ccc(Cn4cc(C)cn4)cc3)nc2C(F)(F)F)c(C)c1", "> 10 µM"),
    ("Cc1cnn(Cc2ccc(Cn3cc(C(=O)NCc4cccc(F)c4C)c(C(F)(F)F)n3)cc2)c1", "> 10 µM"),
    ("Cc1cnn(Cc2ccc(Cn3cc(C(=O)NCc4cccc(Cl)c4F)c(C(F)(F)F)n3)cc2)c1", "> 10 µM"),
    ("COCc1nn(Cc2ccc(Cn3ccccc3=O)cc2)cc1C(=O)NCc1cccnc1C(F)(F)F", "> 10 µM"),
    ("COCc1nn(Cc2ccc(Cn3ccncc3=O)cc2)cc1C(=O)NCc1cccc(OC)c1F", "> 10 µM"),
    ("COCc1nn(Cc2ccc(Cn3ccccc3=O)cc2)cc1C(=O)NCc1c(F)ccc(OC)c1F", "> 10 µM"),
    ("COCc1nn(Cc2ccc(Cn3cc(C)cn3)cc2)cc1C(=O)NCc1csc2ccc(Cl)cc12", "> 10 µM"),
    ("CN1CC(CNC(=O)c2cn(Cc3ccc(Cn4ccccc4=O)cc3)nc2N)Oc2cc(Cl)ccc21 (centres unmarked)", "> 40 µM"),
    ("COCc1nn(Cc2ccc(Cn3ccccc3=O)cc2)cc1C(=O)NCc1c(F)cccc1C(F)F", "> 40 µM"),
    ("CCc1cccc(CNC(=O)c2cn(Cc3ccc(Cn4ccccc4=O)cc3)nc2COC)c1F", "> 40 µM"),
    ("COc1cccc(CNC(=O)c2cn(Cc3ccc(Cn4ccccc4=O)cc3)nc2N(C)C)c1F", "> 10 µM"),
    ("COCc1nn(Cc2ccc(Cn3ccccc3=O)cc2)cc1C(=O)NCc1c(OC)ccc(OC)c1F", "> 40 µM"),
    ("COCc1nn(Cc2ccc(Cn3ccccc3=O)cc2)cc1C(=O)NCc1cccc(OC)c1F", "> 10 µM"),
    ("Cc1ccc(CNC(=O)c2cn(Cc3ccc(Cn4cc(C)cn4)cc3)nc2C(F)(F)F)c(C)c1", "> 10 µM"),
    ("COCc1nn(Cc2ccc(Cn3ccccc3=O)cc2)cc1C(=O)NCc1ccccc1C(=O)OC", "> 10 µM"),
    ("COCc1nn(Cc2ccc(Cn3ccccc3=O)cc2)cc1C(=O)NCc1cc(OC)ccc1F", "> 10 µM"),
    ("COCc1nn(Cc2ccc(Cn3ccccc3=O)cc2)cc1C(=O)NCc1cc(OC)ccc1C(N)=O", "> 40 µM"),
    ("Cc1cnn(Cc2ccc(Cn3cc(C(=O)NCc4c(F)cccc4C(F)(F)F)c(C(F)(F)F)n3)cc2)c1", "> 10 µM"),
    ("O=C(NCc1c(F)cccc1C(F)(F)F)c1cn(Cc2ccc(Cn3ccccc3=O)cc2)nc1C(F)(F)F", "> 40 µM"),
    ("COc1cccc(CNC(=O)c2cn(Cc3ccc(Cn4ccccc4=O)cc3)nc2N)c1F", "> 10 µM"),
    ("COCc1nn(Cc2ccc(Cn3ccccc3=O)cc2)cc1C(=O)NCc1cccc(OC(F)F)c1F", "> 40 µM"),
    ("COCc1nn(Cc2ccc(Cn3ccccc3=O)cc2)cc1C(=O)NCc1c(F)cccc1C(N)=O", "> 40 µM"),
    ("COCc1nn(Cc2ccc(Cn3ccccc3=O)cc2)cc1C(=O)NCc1cccc(OC)c1C(F)F", "> 40 µM"),
    ("COCc1nn(Cc2ccc(Cn3cc(F)ccc3=O)cc2)cc1C(=O)NCc1c(F)ccc(OC)c1F", "> 10 µM"),
    ("COCc1nn(Cc2ccc(Cn3ccccc3=O)cc2)cc1C(=O)NCc1cccc(OC)n1", "> 10 µM"),
    ("Cc1cnn(Cc2ccc(Cn3cc(C(=O)NCc4cc(Cl)ccn4)c(C(F)(F)F)n3)cc2)c1", "> 10 µM"),
    ("COCc1nn(Cc2ccc(Cn3ccccc3=O)cc2)cc1C(=O)NCc1cc(Cl)ccc1C#N", "> 40 µM"),
]
